Source listed as ChEMBL document CHEMBL1134348.

Recorded measurements of remaining at 1 h, one per entry
Experiment: % stability in krebs buffer after 60 minutes.
Assay type: physicochemical
Conditions: Krebs buffer; read-out: Stability
Measured Attribute: remaining at 1 h (%)

Compound	Measured Attribute	Units	Numeric Result
CC1(C)O[C@@H]2CC3C4C[C@H](F)C5=CC(=O)C=C[C@]5(C)[C@@]4(F)[C@@H](O)C[C@]3(C)[C@]2(S[C@@H]2CCOC2=O)O1 (stereo partly drawn)	remaining at 1 h	%	90
CCC[C@@H]1O[C@@H]2CC3C4C[C@H](F)C5=CC(=O)CC[C@]5(C)[C@@]4(F)[C@@H](O)C[C@]3(C)[C@]2(S[C@H]2CCOC2=O)O1 (stereo partly drawn)	remaining at 1 h	%	82
CCC[C@@H]1O[C@@H]2CC3C4C[C@H](F)C5=CC(=O)CC[C@]5(C)[C@@]4(F)[C@@H](O)C[C@]3(C)[C@]2(SCC2CCOC2=O)O1 (stereo partly drawn)	remaining at 1 h	%	100

----------
Test: % stability in krebs buffer after 60 minutes.
Type: physicochemical
Settings: Krebs buffer; read-out: Stability

Compound	Units	remaining at 1 h
CC1(C)O[C@@H]2CC3C4C[C@H](F)C5=CC(=O)C=C[C@]5(C)[C@@]4(F)[C@@H](O)C[C@]3(C)[C@]2(CC2CCOC2=O)O1 (single isomer, unassigned; isomer B)	%	100
CC1(C)O[C@@H]2CC3C4C[C@H](F)C5=CC(=O)CC[C@]5(C)[C@@]4(F)[C@@H](O)C[C@]3(C)[C@]2(SC2CCOC2=O)O1 (stereo partly specified)	%	89
CC1=C(SC2CCOC2=O)[C@@]2(C)C[C@H](O)[C@@]3(F)C(CCC4=CC(=O)C=C[C@@]43C)C2C1 (single isomer, unassigned; isomer B)	%	98
CCC[C@@H]1O[C@@H]2CC3C4C[C@H](F)C5=CC(=O)C=C[C@]5(C)[C@@]4(F)[C@@H](O)C[C@]3(C)[C@]2(SC2CCOC2=O)O1 (stereo partly specified)	%	77
CCC[C@@H]1O[C@@H]2CC3C4C[C@H](F)C5=CC(=O)CC[C@]5(C)[C@@]4(F)[C@@H](O)C[C@]3(C)[C@]2(SC2COC(=O)C2)O1 (single isomer, unassigned; isomer B)	%	100
CC1(C)O[C@@H]2CC3C4C[C@H](F)C5=CC(=O)C=C[C@]5(C)[C@@]4(F)[C@@H](O)C[C@]3(C)[C@]2(SC2CCOC2=O)O1 (stereo partly specified)	%	74

----------
Species: Homo sapiens
Assay: % stability in human plasma after 10 minutes.
Assay type: ADME, organism-based
Conditions: 10 min
Recorded measurements of Stability, one per entry
Measured Attribute: Stability (%)

Compound	Numeric Result
CCC[C@@H]1O[C@@H]2CC3C4C[C@H](F)C5=CC(=O)CC[C@]5(C)[C@@]4(F)[C@@H](O)C[C@]3(C)[C@]2(SC2COC(=O)C2)O1 (single isomer, unassigned; isomer B)	56
CC1=C(SC2CCOC2=O)[C@@]2(C)C[C@H](O)[C@@]3(F)C(CCC4=CC(=O)C=C[C@@]43C)C2C1 (single isomer, unassigned; isomer B)	17
CC1=C(SC2CCOC2=O)[C@@]2(C)C[C@H](O)[C@@]3(F)C(CCC4=CC(=O)C=C[C@@]43C)C2C1 (single isomer, unassigned; isomer A)	53
CCC[C@@H]1O[C@@H]2CC3C4C[C@H](F)C5=CC(=O)CC[C@]5(C)[C@@]4(F)[C@@H](O)C[C@]3(C)[C@]2(SC2COC(=O)C2)O1 (single isomer, unassigned; isomer A)	28

----------
Test: % stability in human plasma after 60 minutes.
Format: ADME, organism-based
Details: plasma, read-out: Stability
Measured Attribute: remaining at 1 h

Compound	Result
CCC[C@@H]1O[C@@H]2CC3C4C[C@H](F)C5=CC(=O)C=C[C@]5(C)[C@@]4(F)[C@@H](O)C[C@]3(C)[C@]2(SC2CCOC2=O)O1 (stereo partly specified)	0%
CC1(C)O[C@@H]2CC3C4C[C@H](F)C5=CC(=O)CC[C@]5(C)[C@@]4(F)[C@@H](O)C[C@]3(C)[C@]2(SC2CCOC2=O)O1 (stereo partly specified)	0%
CC1(C)O[C@@H]2CC3C4C[C@H](F)C5=CC(=O)C=C[C@]5(C)[C@@]4(F)[C@@H](O)C[C@]3(C)[C@]2(SC2CCOC2=O)O1 (stereo partly specified)	0%
CCC[C@@H]1O[C@@H]2CC3C4C[C@H](F)C5=CC(=O)C=C[C@]5(C)[C@@]4(F)[C@@H](O)C[C@]3(C)[C@]2(S[C@@H]2CCOC2=O)O1 (stereo partly specified)	7%
CC1(C)O[C@@H]2CC3C4C[C@H](F)C5=CC(=O)CC[C@]5(C)[C@@]4(F)[C@@H](O)C[C@]3(C)[C@]2(S[C@@H]2CCOC2=O)O1 (stereo partly specified)	0%
CC1=C(SC2CCOC2=O)[C@@]2(C)C[C@H](O)[C@@]3(F)C(CCC4=CC(=O)C=C[C@@]43C)C2C1 (single isomer, unassigned; isomer B)	8%
CC1(C)O[C@@H]2CC3C4C[C@H](F)C5=CC(=O)C=C[C@]5(C)[C@@]4(F)[C@@H](O)C[C@]3(C)[C@]2(S[C@@H]2CCOC2=O)O1 (stereo partly specified)	15%
CC1(C)O[C@@H]2CC3C4C[C@H](F)C5=CC(=O)C=C[C@]5(C)[C@@]4(F)[C@@H](O)C[C@]3(C)[C@]2(CC2CCOC2=O)O1 (single isomer, unassigned; isomer B)	99%
CCC[C@@H]1O[C@@H]2CC3C4C[C@H](F)C5=CC(=O)CC[C@]5(C)[C@@]4(F)[C@@H](O)C[C@]3(C)[C@]2(S[C@@H]2CCOC2=O)O1 (stereo partly specified)	0%
CCC[C@@H]1O[C@@H]2CC3C4C[C@H](F)C5=CC(=O)CC[C@]5(C)[C@@]4(F)[C@@H](O)C[C@]3(C)[C@]2(S[C@H]2CCOC2=O)O1 (stereo partly specified)	0%
CCC[C@@H]1O[C@@H]2CC3C4C[C@H](F)C5=CC(=O)CC[C@]5(C)[C@@]4(F)[C@@H](O)C[C@]3(C)[C@]2(SCC2CCOC2=O)O1 (stereo partly specified)	100%

----------
Recorded measurements of IC50, one per entry
Molecular target: Glucocorticoid receptor (Homo sapiens)
Sequence (P04150 whole entry): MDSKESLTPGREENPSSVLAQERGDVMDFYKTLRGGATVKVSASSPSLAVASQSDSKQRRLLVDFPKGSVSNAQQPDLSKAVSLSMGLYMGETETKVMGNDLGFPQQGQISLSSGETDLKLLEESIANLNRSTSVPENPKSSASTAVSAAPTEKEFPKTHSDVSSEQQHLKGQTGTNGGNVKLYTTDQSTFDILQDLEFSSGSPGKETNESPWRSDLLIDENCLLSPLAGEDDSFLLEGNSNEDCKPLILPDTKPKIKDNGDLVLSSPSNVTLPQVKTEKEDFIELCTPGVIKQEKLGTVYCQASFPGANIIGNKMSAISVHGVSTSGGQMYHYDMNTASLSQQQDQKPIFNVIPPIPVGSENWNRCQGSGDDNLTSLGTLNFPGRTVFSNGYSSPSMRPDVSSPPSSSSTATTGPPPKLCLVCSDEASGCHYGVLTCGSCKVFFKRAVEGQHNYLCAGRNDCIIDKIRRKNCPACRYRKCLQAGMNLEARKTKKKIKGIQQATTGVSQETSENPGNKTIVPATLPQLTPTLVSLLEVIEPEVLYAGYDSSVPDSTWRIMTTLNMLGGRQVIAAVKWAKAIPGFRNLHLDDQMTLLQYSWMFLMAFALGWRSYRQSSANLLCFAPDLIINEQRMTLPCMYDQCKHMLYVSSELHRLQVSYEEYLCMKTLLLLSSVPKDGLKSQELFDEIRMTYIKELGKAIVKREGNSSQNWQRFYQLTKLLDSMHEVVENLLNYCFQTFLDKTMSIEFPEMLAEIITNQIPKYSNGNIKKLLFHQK
Measured Attribute: IC50 (nM)

Molecule	Experimental System	Numeric Result
CCC[C@@H]1O[C@@H]2CC3C4C[C@H](F)C5=CC(=O)CC[C@]5(C)[C@@]4(F)[C@@H](O)C[C@]3(C)[C@]2(S[C@@H]2CCOC2=O)O1 (stereo partly drawn)	Glucocorticoid receptor (Homo sapiens)	6.4
CCC[C@@H]1O[C@@H]2CC3C4C[C@H](F)C5=CC(=O)CC[C@]5(C)[C@@]4(F)[C@@H](O)C[C@]3(C)[C@]2(SC(CCO)C(=O)O)O1 (stereo partly drawn)	Glucocorticoid receptor (Homo sapiens)	400
CC1(C)O[C@@H]2CC3C4C[C@H](F)C5=CC(=O)C=C[C@]5(C)[C@@]4(F)[C@@H](O)C[C@]3(C)[C@]2(S[C@@H]2CCOC2=O)O1 (stereo partly drawn)	Glucocorticoid receptor (Homo sapiens)	1.4

----------
Experiment: % stability in human plasma after 10 minutes.
Type: ADME, organism-based
Conditions: plasma, read-out: Stability

Molecule	remaining at 10 min
CCC[C@@H]1O[C@@H]2CC3C4C[C@H](F)C5=CC(=O)CC[C@]5(C)[C@@]4(F)[C@@H](O)C[C@]3(C)[C@]2(SCC2CCOC2=O)O1 (stereo partly drawn)	100%
CC1(C)O[C@@H]2CC3C4C[C@H](F)C5=CC(=O)CC[C@]5(C)[C@@]4(F)[C@@H](O)C[C@]3(C)[C@]2(S[C@@H]2CCOC2=O)O1 (stereo partly drawn)	28%
CCC[C@@H]1O[C@@H]2CC3C4C[C@H](F)C5=CC(=O)CC[C@]5(C)[C@@]4(F)[C@@H](O)C[C@]3(C)[C@]2(S[C@H]2CCOC2=O)O1 (stereo partly drawn)	0%
